- Tested on: biotinyl-Phe-oxazolone
- measurement_notes: self-aminoacylation, catalytic enhancement (BFO) (fold over background); higher = more active; k-Seq, kA / k0A0; sequences stand for … in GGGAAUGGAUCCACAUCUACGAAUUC…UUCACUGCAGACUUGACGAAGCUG
Fewer inactive variants are shown than the library holds.
test_readout: self-aminoacylation
The answer should be a number; do not append a unit.

Recorded result, CUACUUCAGACAAUCGGUGUG [Fam1A.1 aminoacylation ribozyme variant] , self-aminoacylation: 3.43

Recorded result, AAGUUGGCUAAUACUCGCAAG [Fam3.1 aminoacylation ribozyme variant] , self-aminoacylation: 1.44

Recorded result, CUGCUUCAGACAAUCGGUCUG [Fam1A.1 aminoacylation ribozyme variant] , self-aminoacylation: 1.78

Recorded result, UAGUUUGCUAAUAGUCGUAAG [Fam3.1 aminoacylation ribozyme variant] , self-aminoacylation: 17.9

Recorded result, AUGUUUGCUAAUAGUCGCCAG [Fam3.1 aminoacylation ribozyme variant] , self-aminoacylation: 1.53

* * *

- System: biotinyl-Leu-oxazolone
- measurement_notes: self-aminoacylation, catalytic enhancement (BLO) (fold over background); higher = more active; k-Seq, kA / k0A0; sequences stand for … in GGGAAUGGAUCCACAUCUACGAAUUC…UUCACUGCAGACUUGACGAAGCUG
This sample holds only a part of the variants without activity.
test_readout: self-aminoacylation
The answer should be a number; do not append a unit.

>  <sequence_content>
CUUUCCCUGGUCAUCGAGUGA [Fam2.1 aminoacylation ribozyme variant]

>  <recorded_result>
8.95

$$$$
>  <sequence_content>
GUACUUCAAACAAUUGGUCUG [Fam1A.1 aminoacylation ribozyme variant]

>  <recorded_result>
1.34

$$$$
>  <sequence_content>
CUACUUCAAACAAUCGUCCUG [Fam1A.1 aminoacylation ribozyme variant]

>  <recorded_result>
0.394

$$$$

Kindly note: biotinyl-Leu-oxazolone, AUUAACAUGGUCAUCGAGUGA [Fam2.1 aminoacylation ribozyme variant] , self-aminoacylation value reported: 6.1

Kindly note: biotinyl-Leu-oxazolone, CCACACUUCAAGCAAGCUGUC [Fam1B.1 aminoacylation ribozyme variant] , self-aminoacylation value reported: 0.404

Kindly note: biotinyl-Leu-oxazolone, AUUACCCUGGUUAUCUAGUGA [Fam2.1 aminoacylation ribozyme variant] , self-aminoacylation value reported: 15.3

Kindly note: biotinyl-Leu-oxazolone, CUACUUCAAAUAAUCGCUCUG [Fam1A.1 aminoacylation ribozyme variant] , self-aminoacylation value reported: 0.583

Kindly note: biotinyl-Leu-oxazolone, CUUACCCCGGUCAUCGAGUGA [Fam2.1 aminoacylation ribozyme variant] , self-aminoacylation value reported: 6.2

Kindly note: biotinyl-Leu-oxazolone, AUUACCUUAGUCAUCGAGUGA [Fam2.1 aminoacylation ribozyme variant] , self-aminoacylation value reported: 4.62

Kindly note: biotinyl-Leu-oxazolone, AUGUUUGCUAAUAGUCACAAG [Fam3.1 aminoacylation ribozyme variant] , self-aminoacylation value reported: 1.07

Kindly note: biotinyl-Leu-oxazolone, AUUCCCCUGGUCAUAGAGUGA [Fam2.1 aminoacylation ribozyme variant] , self-aminoacylation value reported: 10.1

Kindly note: biotinyl-Leu-oxazolone, AUUCACCUAGGUCAUCGAGUU [Fam2.2 aminoacylation ribozyme variant] , self-aminoacylation value reported: 4.79

Kindly note: biotinyl-Leu-oxazolone, AAGUUUGCUAAUGGUAGCAAG [Fam3.1 aminoacylation ribozyme variant] , self-aminoacylation value reported: 0.692

Kindly note: biotinyl-Leu-oxazolone, CCAGACUUCAAGCAAUCGGUG [Fam1B.1 aminoacylation ribozyme variant] , self-aminoacylation value reported: 8.51

Kindly note: biotinyl-Leu-oxazolone, AAGUUUGCUAAUAGUCGCCGG [Fam3.1 aminoacylation ribozyme variant] , self-aminoacylation value reported: 3.53

Kindly note: biotinyl-Leu-oxazolone, AUUACCCUGGCCAUGGAGUGA [Fam2.1 aminoacylation ribozyme variant] , self-aminoacylation value reported: 4.12

Kindly note: biotinyl-Leu-oxazolone, CUGCUUCAAACAAUCGGUCCG [Fam1A.1 aminoacylation ribozyme variant] , self-aminoacylation value reported: 2.38

Kindly note: biotinyl-Leu-oxazolone, AUUCUCCUAGGUCAUCGGAUG [Fam2.2 aminoacylation ribozyme variant] , self-aminoacylation value reported: 0.907
